Assay: in vitro
Conditions: human, Caco-2
endpoint.label: CC50

compound | endpoint.label | experimental.result
COc1ccc2c(=O)c(Oc3ccc(C(=O)NC(C)Cc4c[nH]c5ccccc45)cc3)coc2c1 (stereo not shown) | CC50 | > 100 µM

====

Experiment: in vitro
Details: human
endpoint.label: CC50

compound | experimental.result
CC(C)=CCc1c(-c2ccc(O)c3c2OC(C)(C)C=C3)oc2cc(O)cc(O)c2c1=O | 47.7 µM
CC(C)=CCc1c(-c2ccc(O)cc2O)oc2c3c(cc(O)c2c1=O)OC(C)(C)C=C3 | 25.2 µM
CC(C)=CCCC1=C[C@H](c2c(O)cc3c(c2O)C(=O)C[C@@H](c2ccc(O)cc2O)O3)[C@@H](C(=O)c2ccc(O)cc2O)[C@H](c2ccc(O)cc2O)C1 | 49.1 µM
COc1cc(C2Oc3cc([C@H]4Oc5cc(O)cc(O)c5C(=O)[C@@H]4O)ccc3OC2CO)ccc1O (stereo partly drawn) | > 100 µM
CC(C)(O)[C@H](O)COc1c2ccoc2cc2oc(=O)ccc12 [Compound 37, oxypeucedanin hydrate] | > 100 µM
COc1ccc2c(=O)c(Oc3ccc(C(=O)NC(C)Cc4c[nH]c5ccccc45)cc3)coc2c1 (stereo not drawn) | > 100 µM

Every entry's value here was drawn from paper PMC9885530.
